# Tgt: cathepsin B (CatB) (Homo sapiens, UniProt P07858)
# Test Name: Cathepsin B enzyme inhibition
# Format: biochemical
# Condition Details: 10 μM; replicates = 2; n.i. = no inhibition observed at 10 μM
Measured Property: remaining activity at 10 µM (%)

[[record]]
molecule = "CC(C)CC(C#N)NC(=O)[C@H](Cc1ccccc1)NC(=O)c1cc(C(C)(C)C)nn1C (stereo in doubt) [Compound 53]"
value_observed = 90

[[record]]
molecule = "CC(C)C[C@H](NC(=O)c1ccnc2cc(Cl)ccc12)C(=O)NC1(C#N)CC1 [Compound 15]"
value_observed = 89

[[record]]
molecule = "Cn1nc(C(C)(C)C)cc1C(=O)N[C@@H](Cc1ccncc1)C(=O)NC1(C#N)CC1 [Compound 10]"
value_observed = 93

[[record]]
molecule = "CC(C)C[C@H](NC(=O)c1cc(C(C)(C)C)nn1C)C(=O)N[C@@H](C#N)[C@H](C)O [Compound 68]"
value_observed = 93

[[record]]
molecule = "C[C@@H](O)[C@@H](C#N)NC(=O)[C@H](Cc1ccccc1)NC(=O)c1cc(C(C)(C)C)nn1C [Compound 65]"
value_observed = 92

[[record]]
molecule = "CC(C)C[C@H](NC(=O)c1cc(C(C)(C)C)nn1C)C(=O)N[C@H](C#N)[C@@H](C)O [Compound 67]"
value_observed = 92

[[record]]
molecule = "C[C@H](O)[C@H](C#N)NC(=O)[C@H](Cc1ccccc1)NC(=O)c1cc(C(C)(C)C)nn1C [Compound 66]"
value_observed = 89

[[record]]
molecule = "Cn1nc(C(C)(C)C)cc1C(=O)N[C@@H](Cc1ccccc1)C(=O)N[C@@H](C#N)Cc1ccccc1 [Compound 51]"
value_observed = 94


====

# Tgt: Leishmania mexicana CPB (LmCPB) (Leishmania mexicana, UniProt P36400)
# Sequence (P36400 126-443): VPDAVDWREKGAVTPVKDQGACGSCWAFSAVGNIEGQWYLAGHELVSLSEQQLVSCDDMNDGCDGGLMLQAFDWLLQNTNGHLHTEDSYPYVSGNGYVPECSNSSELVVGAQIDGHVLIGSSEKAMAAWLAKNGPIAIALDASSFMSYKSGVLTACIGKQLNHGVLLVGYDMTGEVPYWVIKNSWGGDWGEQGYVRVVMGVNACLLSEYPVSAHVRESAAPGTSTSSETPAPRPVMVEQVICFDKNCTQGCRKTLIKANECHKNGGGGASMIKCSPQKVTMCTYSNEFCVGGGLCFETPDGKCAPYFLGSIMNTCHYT
# Test Name: LmCPB enzyme inhibition
# Type: biochemical
pKi: −log10 of the molar value.
pKi overview
Measured Property: pKi

[[record]]
structure_string = "Cn1nc(C(C)(C)C)cc1C(=O)N[C@@H](Cc1ccccc1)C(=O)N[C@H](C#N)Cc1ccncc1"
value_observed = 7.20

[[record]]
structure_string = "N#CC1(NC(=O)[C@H](Cc2ccccc2)NC(=O)c2ccnc3cc(Cl)ccc23)CC1"
value_observed = 6.90

[[record]]
structure_string = "Cn1nc(C(C)(C)C)cc1C(=O)N[C@@H](Cc1ccccc1)C(=O)N[C@H](C#N)Cc1cccc(Cl)c1"
value_observed = 7.50

[[record]]
structure_string = "CC(C)C[C@H](NC(=O)c1cnc2[nH]ccc2c1)C(=O)NC1(C#N)CC1"
value_observed = 7.20


====

# Tgt: recombinant cruzain (Cz) (Trypanosoma cruzi, UniProt P25779)
# Sequence (P25779 123-337): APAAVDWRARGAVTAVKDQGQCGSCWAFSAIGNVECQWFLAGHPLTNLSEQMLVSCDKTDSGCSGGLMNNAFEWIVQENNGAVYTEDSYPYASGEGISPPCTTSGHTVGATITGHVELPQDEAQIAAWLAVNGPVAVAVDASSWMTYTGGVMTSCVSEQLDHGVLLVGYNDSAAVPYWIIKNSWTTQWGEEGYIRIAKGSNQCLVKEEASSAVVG
# Test Name: Cruzain enzyme inhibition
# Assay type: biochemical
Ki overview
Measured Property: Ki (nM)

[[record]]
structure_string = "Cn1nc(C(C)(C)C)cc1C(=O)N[C@@H](Cc1ccccc1)C(=O)N[C@H](C#N)Cc1ccncc1"
measured_property = "Ki"
units_text = "nM"
value_observed = 31.6

[[record]]
structure_string = "Cn1nc(C(C)(C)C)cc1C(=O)N[C@@H](Cc1ccccc1)C(=O)N[C@H](C#N)Cc1cccc(Cl)c1"
measured_property = "Ki"
units_text = "nM"
value_observed = 31.6

[[record]]
structure_string = "N#CC1(NC(=O)[C@H](Cc2ccccc2)NC(=O)c2ccnc3cc(Cl)ccc23)CC1"
measured_property = "Ki"
units_text = "nM"
value_observed = 200

[[record]]
structure_string = "CC(C)C[C@H](NC(=O)c1cnc2[nH]ccc2c1)C(=O)NC1(C#N)CC1"
measured_property = "Ki"
units_text = "nM"
value_observed = 20


====

# System: T. cruzi Tulahuen LacZ strain, intracellular amastigote forms
# Test Name: In vitro trypanocidal activity on intracellular amastigote forms (Tulahuen strain)
# Format: cell-based, Trypanosoma cruzi
# Condition Details: Trypanosoma cruzi, TULAHUEN, T. cruzi amastigote form; S1 Table; read-out: pEC50 (converted)
EC50 overview
Measured Property: EC50 (µM)

[[record]]
compound = "CC(C)C[C@H](NC(=O)c1ccnc2cc(Cl)ccc12)C(=O)NC1(C#N)CC1"
reading_qualifier = "="
value_observed = 79.4

[[record]]
compound = "C[C@@H](OCc1ccccc1)[C@@H](C#N)NC(=O)[C@H](Cc1cccc(Cl)c1)NC(=O)c1cc(C(C)(C)C)nn1C"
reading_qualifier = "="
value_observed = 5.01

[[record]]
compound = "C[C@@H](OCc1ccccc1)[C@@H](C#N)NC(=O)[C@H](Cc1ccccc1)NC(=O)c1cc(C(C)(C)C)nn1C"
reading_qualifier = ">"
value_observed = 100

[[record]]
compound = "C[C@@H](O)[C@H](NC(=O)c1cc(C(C)(C)C)nn1C)C(=O)NC1(C#N)CC1"
reading_qualifier = ">"
value_observed = 100

[[record]]
compound = "C[C@H](OCc1ccccc1)[C@H](C#N)NC(=O)[C@H](Cc1ccccc1)NC(=O)c1cc(C(C)(C)C)nn1C"
reading_qualifier = "="
value_observed = 3.98

[[record]]
compound = "CC(C)C[C@H](NC(=O)c1cc(C(C)(C)C)nn1C)C(=O)N[C@H](C#N)[C@@H](C)O"
reading_qualifier = "="
value_observed = 25.1

[[record]]
compound = "CC(C)C[C@@H](C#N)NC(=O)[C@H](Cc1ccccc1)NC(=O)c1cc(C(C)(C)C)nn1C"
reading_qualifier = "="
value_observed = 3.98

[[record]]
compound = "Cn1nc(C(C)(C)C)cc1C(=O)N[C@@H](Cc1ccccc1)C(=O)N[C@H](C#N)Cc1ccncc1"
reading_qualifier = ">"
value_observed = 100

[[record]]
compound = "CC(C)C[C@H](NC(=O)c1cc(C(C)(C)C)nn1C)C(=O)N[C@@H](C#N)[C@H](C)O"
reading_qualifier = "="
value_observed = 15.8

[[record]]
compound = "CC(C)C[C@H](NC(=O)c1ccc(N)nc1)C(=O)NC1(C#N)CC1"
reading_qualifier = ">"
value_observed = 100

[[record]]
compound = "N#CC1(NC(=O)[C@H](Cc2ccccc2)NC(=O)c2cccc(OC(=O)c3ccccc3)c2)CC1"
reading_qualifier = "="
value_observed = 50.1

[[record]]
compound = "CC(C)C[C@H](NC(=O)c1cc(C(C)(C)C)nn1C)C(=O)N[C@@H](C#N)[C@H](C)OCc1ccccc1"
reading_qualifier = ">"
value_observed = 100

[[record]]
compound = "CC(C)CC(C#N)NC(=O)[C@H](Cc1ccccc1)NC(=O)c1cc(C(C)(C)C)nn1C (stereo in doubt)"
reading_qualifier = "="
value_observed = 25.1

[[record]]
compound = "C[C@H](O)[C@H](C#N)NC(=O)[C@H](Cc1ccccc1)NC(=O)c1cc(C(C)(C)C)nn1C"
reading_qualifier = "="
value_observed = 31.6

[[record]]
compound = "Cn1nc(C(C)(C)C)cc1C(=O)N[C@@H](Cc1ccccc1)C(=O)N[C@H](C#N)Cc1ccccc1"
reading_qualifier = "="
value_observed = 63.1


====

# Tgt: Human recombinant cathepsin K (Homo sapiens, UniProt P43235)
# Sequence (P43235 115-329): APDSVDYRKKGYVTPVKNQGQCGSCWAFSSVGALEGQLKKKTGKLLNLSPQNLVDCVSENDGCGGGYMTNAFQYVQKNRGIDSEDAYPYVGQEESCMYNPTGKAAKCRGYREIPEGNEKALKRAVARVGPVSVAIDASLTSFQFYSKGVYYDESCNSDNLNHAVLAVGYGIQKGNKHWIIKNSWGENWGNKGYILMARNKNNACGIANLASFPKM
# Test Name: Cathepsin K assay
# Assay type: biochemical
# Condition Details: SD lower than 15%; read-out: pKi CatK (converted)
Measured Property: Ki (nM)

[[record]]
structure_string = "CC(C)C[C@H](NC(=O)c1cc(C(C)(C)C)nn1C)C(=O)NC1(C#N)CC1"
value_observed = 5.01

[[record]]
structure_string = "Cn1nc(C(C)(C)C)cc1C(=O)N[C@@H](Cc1ccncc1)C(=O)NC1(C#N)CC1"
value_observed = 10000

[[record]]
structure_string = "C[C@@H](OCc1ccccc1)[C@@H](C#N)NC(=O)[C@H](Cc1ccccc1)NC(=O)c1cc(C(C)(C)C)nn1C"
value_observed = 2000

[[record]]
structure_string = "C[C@@H](O)[C@H](NC(=O)c1cc(C(C)(C)C)nn1C)C(=O)NC1(C#N)CC1"
value_observed = 3160


====

Ki overview
# Tgt: Human recombinant cathepsin K (Homo sapiens)
# Test Name: Cathepsin K assay
# Format: biochemical
# Condition Details: SD lower than 15%; read-out: pKi CatK (converted)
Measured Property: Ki (nM)

[[record]]
structure_string = "Cn1nc(C(C)(C)C)cc1C(=O)N[C@@H](Cc1ccccc1)C(=O)NC1(C#N)CC1"
measured_property = "Ki"
units_text = "nM"
value_observed = 316

[[record]]
structure_string = "CC(C)C[C@@H](C#N)NC(=O)[C@H](Cc1ccccc1)NC(=O)c1cc(C(C)(C)C)nn1C"
measured_property = "Ki"
units_text = "nM"
value_observed = 200

[[record]]
structure_string = "C[C@@H](O)[C@@H](C#N)NC(=O)[C@H](Cc1cccc(Cl)c1)NC(=O)c1cc(C(C)(C)C)nn1C"
measured_property = "Ki"
units_text = "nM"
value_observed = 794

[[record]]
structure_string = "Cn1nc(C(C)(C)C)cc1C(=O)N[C@@H](Cc1ccccc1)C(=O)N[C@H](C#N)Cc1ccccc1"
measured_property = "Ki"
units_text = "nM"
value_observed = 501


This collection of values is drawn from paper PMC7067379.
